Sourced from patent US20220119489A1

binders and their reported Total
# System: CD82 (mouse) (mouse, UniProt P40237)
# Experiment Description: IP with anti CD82 antibodies, mouse muscle tissue, mass spectrometry
Readout: Total

[[record]]
binder = "Annexin 1 (mouse) (other) AMVSEFLKQARFLENQEQEYVQAVKSYKGGPGSAVSPYPSFNVSSDVAALHKAIMVKGVDEATIIDILTKRTNAQRQQIKAAYLQENGKPLDEVLRKALTGHLEEVVLAMLKTPAQFDADELRGAMKGLGTDEDTLIEILTTRSNEQIREINRVYREELKRDLAKDITSDTSGDFRKALLALAKGDRCQDLSVNQDLADTDARALYEAGERRKGTDVNVFTTILTSRSFPHLRRVFQNYGKYSQHDMNKALDLELKGDIEKCLTTIVKCATSTPAFFAEKLYEAMKGAGTRHKALIRIMVSRSEIDMNEIKVFYQKKYGISLCQAILDETKGDYEKILVALCGGN"
result_value = 2

[[record]]
binder = "ALDOA_MOUSE (enzyme) PHPYPALTPEQKKELSDIAHRIVAPGKGILAADESTGSIAKRLQSIGTENTEENRRFYRQLLLTADDRVNPCIGGVILFHETLYQKADDGRPFPQVIKSKGGVVGIKVDKGVVPLAGTNGETTTQGLDGLSERCAQYKKDGADFAKWRCVLKIGEHTPSALAIMENANVLARYASICQQNGIVPIVEPEILPDGDHDLKRCQYVTEKVLAAVYKALSDHHVYLEGTLLKPNMVTPGHACTQKFSNEEIAMATVTALRRTVPPAVTGVTFLSGGQSEEEASINLNAINKCPLLKPWALTFSYGRALQASALKAWGGKKENLKAAQEEYIKRALANSLACQGKYTPSGQSGAAASESLFISNHAY"
result_value = 3

